test: Elimination half life in rat; format: ADME, tissue-based; settings: plasma
Numbered stars: 1 amine (or outer) side, 2 acyl side, 3 side chain; on linkers, the order of the positions; unused ones are H or OH. Bridge positions count the residues as written; N and C are the ends. Square brackets hold non-standard residues; d marks the D form. Peptide text beside a SMILES is read from it. N(2-Aminoethyl)Gly = O=C(CN(CCN[*:3])[*:1])[*:2]; Suc = O=C(CCC(=O)[*:2])[*:1]
Metric: half-life

[[record]]
compound = "N=C(N)NCCC[C@@H]1NC(=O)[C@@H](Cc2ccccc2)NC(=O)[C@H](Cc2ccccc2)NC(=O)CCC(=O)NCCN(CC(N)=O)C(=O)[C@H](Cc2c[nH]c3ccccc23)NC1=O (F[dF]RW[N(2-Aminoethyl)Gly]-NH2; linker N-5 via Suc)"
reported = "1.67 h"


----------
assay: AUC in Wistar rat plasma at 1 mg/kg, iv and 10 mg/kg, po; assay type: ADME, organism-based
Numbered stars: 1 amine (or outer) side, 2 acyl side, 3 side chain; on linkers, the order of the positions; unused ones are H or OH. Bridge positions count the residues as written; N and C are the ends. Square brackets hold non-standard residues; d marks the D form. Peptide text beside a SMILES is read from it. N(2-Aminoethyl)Gly = O=C(CN(CCN[*:3])[*:1])[*:2]; Suc = O=C(CCC(=O)[*:2])[*:1]
Metric: AUC

[[record]]
compound = "N=C(N)NCCC[C@@H]1NC(=O)[C@@H](Cc2ccccc2)NC(=O)[C@H](Cc2ccccc2)NC(=O)CCC(=O)NCCN(CC(N)=O)C(=O)[C@H](Cc2c[nH]c3ccccc23)NC1=O (F[dF]RW[N(2-Aminoethyl)Gly]-NH2; linker N-5 via Suc)"
metric = "AUC"
reported = "416 ng·h/mL"


----------
Some compounds, each annotated with its measured pEC50.
target: Melanocortin receptor 3 (Mus musculus, UniProt P33033); test: Agonist activity at mouse MC3R expressed in HEK293 cells
Sequence (P33033 whole entry): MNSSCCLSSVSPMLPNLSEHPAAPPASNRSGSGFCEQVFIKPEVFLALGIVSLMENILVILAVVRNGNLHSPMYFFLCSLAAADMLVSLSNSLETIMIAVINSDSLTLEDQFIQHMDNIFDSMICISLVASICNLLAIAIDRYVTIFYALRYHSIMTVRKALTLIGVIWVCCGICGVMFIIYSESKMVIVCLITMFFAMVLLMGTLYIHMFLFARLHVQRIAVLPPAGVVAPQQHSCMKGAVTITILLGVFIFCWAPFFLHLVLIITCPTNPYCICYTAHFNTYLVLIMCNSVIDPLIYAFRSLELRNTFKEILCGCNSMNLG
pEC50: −log10 of the molar value. Numbered stars: 1 amine (or outer) side, 2 acyl side, 3 side chain; on linkers, the order of the positions; unused ones are H or OH. Bridge positions count the residues as written; N and C are the ends. Square brackets hold non-standard residues; d marks the D form. Peptide text beside a SMILES is read from it. NGly(3-aminopropyl) = O=C(CN(CCCN[*:3])[*:1])[*:2]; N(2-Aminoethyl)Gly = O=C(CN(CCN[*:3])[*:1])[*:2]; Suc = O=C(CCC(=O)[*:2])[*:1]
Metric: pEC50

[[record]]
compound = "N=C(N)NCCC[C@@H]1NC(=O)[C@@H](Cc2ccccc2)NC(=O)[C@H](Cc2ccccc2)NC(=O)CCC(=O)NCCN(CC(N)=O)C(=O)[C@H](Cc2c[nH]c3ccccc23)NC1=O (F[dF]RW[N(2-Aminoethyl)Gly]-NH2; linker N-5 via Suc)"
reported = 6.11

[[record]]
compound = "N=C(N)NCCC[C@@H]1NC(=O)[C@@H](Cc2ccccc2)NC(=O)[C@H](Cc2ccccc2)NC(=O)c2ccccc2C(=O)NCCN(CC(N)=O)C(=O)[C@H](Cc2c[nH]c3ccccc23)NC1=O"
reported = 4.69

[[record]]
compound = "N=C(N)NCCC[C@@H]1NC(=O)[C@@H](Cc2ccccc2)NC(=O)[C@H](Cc2ccccc2)NC(=O)CCC(=O)NCCCN(CC(N)=O)C(=O)[C@H](Cc2c[nH]c3ccccc23)NC1=O (F[dF]RW[NGly(3-aminopropyl)]-NH2; linker N-5 via Suc)"
reported = 5.90

